Attribution: the supplement of paper PMC10307832

Listing of recorded relative viability by entry.
- Test system: NCI-H23
- experimentalDetails: relative viability (nuclei count vs DMSO), 5 days (fraction); higher = more cells survive
- conditionInfo: first compound 0.08 µM
Answer using only a numeral; do not append any unit.

Completed entries (count: 3):
compound	experimentalTarget	relative viability
O=c1cc(-c2cccc3c2Sc2ccccc2S3)oc(N2CCOCC2)c1 + C[C@]1(O)C[C@@H](c2nc(-c3ccc4ccc(-c5ccccc5)nc4c3)c3c(N)nccn32)C1 [Linsitinib] (partner 1 µM)	NCI-H23	0.596
O=c1cc(-c2cccc3c2Sc2ccccc2S3)oc(N2CCOCC2)c1 + CC(=O)Nc1cccc(-n2c(=O)n(C3CC3)c(=O)c3c(Nc4ccc(I)cc4F)n(C)c(=O)c(C)c32)c1 [Trametinib] (partner 0.02 µM)	NCI-H23	0.334
COc1nc(C)cnc1NS(=O)(=O)c1cccnc1-c1ccc(-c2nnco2)cc1 [Zibotentan] + CC(=O)Nc1cccc(-n2c(=O)n(C3CC3)c(=O)c3c(Nc4ccc(I)cc4F)n(C)c(=O)c(C)c32)c1 [Trametinib] (partner 0.02 µM)	NCI-H23	0.403

Just so you know, measured relative viability for O=c1cc(-c2cccc3c2Sc2ccccc2S3)oc(N2CCOCC2)c1 + Cc1cc(Nc2cc(N3CCN(C)CC3)nc(Sc3ccc(NC(=O)C4CC4)cc3)n2)n[nH]1 [Tozasertib] (partner 0.1 µM) came out at 0.629

Just so you know, measured relative viability for O=c1cc(-c2cccc3c2Sc2ccccc2S3)oc(N2CCOCC2)c1 + C[C@@H](Oc1cc(-c2cnn(C3CCNCC3)c2)cnc1N)c1c(Cl)ccc(F)c1Cl [Crizotinib] (partner 1 µM) came out at 0.442

Just so you know, measured relative viability for COc1nc(C)cnc1NS(=O)(=O)c1cccnc1-c1ccc(-c2nnco2)cc1 [Zibotentan] + COc1cc2c(Oc3ccc(NC(=O)C4(C(=O)Nc5ccc(F)cc5)CC4)cc3F)ccnc2cc1OCCCN1CCOCC1 [Foretinib] (partner 0.25 µM) came out at 1.08
